Sourced from PubChem BioAssay

- method description: TLR3 IRF3 reporter activation blockers – cell-based, poly I:C stimulus, luciferase, 10K MLSCN set, primary screen (AID 602277)
- experimental conditions: HEK293-TLR3 RL24 IRF3 luciferase reporter, at 10 µM
Activity calls are given as the source filed them.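 How the source made its calls: active means inhibition of the reporter signal at or above 50%; inactive means inhibition below 50%.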 Where a SMILES comes first, the peptide text is derived from it. The star is where a group is joined. Boc = CC(C)(C)OC(=O)*
Respond with a class label; see 1 for active, 0 for inactive

# example entries with known answers
{"columns": ["compound", "assigned category"],
 "data": [
  ["COc1ccc(OCC(=O)N2CCN(C(=O)c3cccs3)CC2)cc1", 0],
  ["CC(C)CC(NC(=O)OC(C)(C)C)C(=O)NC(C(=O)NC(C)C(N)=O)C(C)C (stereo not drawn) (Boc-Leu-Val-Ala-NH2; configuration not given here)", 0],
  ["COc1ccccc1-c1cc(C(=O)NCCCn2ccnc2)no1", 0],
  ["CCN(CC)c1ccc(CNc2ccc(Br)cn2)cc1", 0],
  ["CN(C)CCSc1nnc2sc3ccccc3n12", 0],
  ["CCC(C)NC(=O)C1CCCN(S(=O)(=O)c2ccc(-n3cnnn3)cc2)C1 (stereo not given)", 0],
  ["Cc1cc(C)cc(N(CC(=O)Nc2cccc(C)n2)S(=O)(=O)c2c(C)noc2C)c1", 0],
  ["O=S(=O)(NCC(O)COCc1ccco1)c1cccs1 (stereo not given)", 0],
  ["COc1ccc(-c2cc3nc(C)c(CCC(=O)NCc4ccco4)c(C)n3n2)c(OC)c1", 0],
  ["O=C(COc1ccccc1)NCCSCc1ccco1", 0]
]}

Problem: Which result was noted for this compound in the test: O=C(CN(Cc1ccco1)C(=O)CNS(=O)(=O)c1ccc(Cl)cc1)NCc1ccc(F)cc1
Result: 0

Problem: Which result was noted for this compound in the test: COC(=O)C1(C)NC(c2ccco2)C2C(=O)N(c3ccc(C)cc3)C(=O)C21 (stereo not given)
Result: 0

Problem: Which result was noted for this compound in the test: O=C(/C=N/O)Nc1cccnc1
Result: 0

Problem: Which result was noted for this compound in the test: Cc1ccc(CCNC(=O)Cn2cccc2)cc1
Result: 0

Problem: Which result was noted for this compound in the test: CC(=O)N1CCc2cc(S(=O)(=O)NCCC(=O)NC3CCCc4ccccc43)ccc21 (stereo not given)
Result: 0

Problem: Which result was noted for this compound in the test: Cc1csc(NC(=O)c2cccc(S(=O)(=O)N3CCCCC3)c2)n1
Result: 0

---

- method description: inhibitors of TNFa-induced NFkB p65 translocation, primary screen, imaging, HUVEC, MLSMR starter and 10KST1 sets (AID 438);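 further: compound added about 3h40 before a 20 min TNFalpha stimulation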
- experimental conditions: HUVEC TNFa-induced p65 nuclear translocation; measured here: nuclei count (cytotoxicity indicator), at 2.08 µM
Entry class follows cell count: lower (below 400), middle (400 to below 600), upper (600 or more)

Problem: Using the reported cell count, which band applies to CN(C)S(=O)(=O)n1cnc(-c2ccccc2)c1-c1ccccc1 ?
Result: lower

Problem: Using the reported cell count, which band applies to Cc1ccc(CNC(=O)C2CCN(S(=O)(=O)c3c(C)noc3C)CC2)cc1 ?
Result: middle

Problem: Using the reported cell count, which band applies to Cc1cccc(OCC(=O)N2CCC(c3ccccc3)C2)c1 (stereo unspecified) ?
Result: lower

---

- study target: Dual specificity protein phosphatase 6 (Homo sapiens)
- method description: Primary imaging screen for DUSP6 inhibitors that restore phospho-Erk in transfected HeLa cells, chemical complementation (AID 609);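 further: phospho-Erk level distribution per well compared with pooled transfected vehicle control wells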
- experimental conditions: HeLa MKP-3 transfected, phospho-Erk imaging KS statistic; at 10 µM; stronger effect = higher value; cells stimulated with TPA for 15 min
observation type: inhibition (%)
Kindly answer with a numeric value in %, unit omitted.

In the examples that follow, each entry is paired with its recorded inhibition.
{"columns": ["compound", "obs value"],
 "data": [
  ["COc1ccc(-n2c(C)c(C(C)=O)c3cc(O)ccc32)cc1", 9.39],
  ["CC(=O)OCC1=C(C(=O)O)N2C(=O)[C@@H](NC(=O)Cc3cccs3)[C@H]2SC1", 17.3],
  ["COC(=O)C1C(=O)NCC1c1ccccc1 (stereo unspecified)", 49.5],
  ["CN(C)/C=C1\\N=C(c2cccs2)OC1=O", 1.75],
  ["C[C@]12C=CC(=O)C=C1CC[C@H]1[C@@H]3C[C@@H](O)[C@](O)(C(=O)CO)[C@@]3(C)C[C@H](O)[C@@]12F", 15.3],
  ["COc1cccc(N2CCN(c3ncnc4c3[nH]c3ccccc34)CC2C)c1 (stereo unspecified)", -7.93]
]}

Problem: Fill blank: measured inhibition of the compound COc1ccc([C@@H]2Sc3ccccc3N(CCN(C)C)C(=O)[C@@H]2OC(C)=O)cc1 is ____.
Result: -4.44

Problem: Fill blank: measured inhibition of the compound C=CCNc1nc(C2(C)CC3(CC(C)(C)OC3=O)C(=O)O2)cs1 (stereo unspecified) is ____.
Result: -2.07

Problem: Fill blank: measured inhibition of the compound c1ccc2c(c1)CCCC2C1=NCCN1 (stereo unspecified) is ____.
Result: 5.79

Problem: Fill blank: measured inhibition of the compound Clc1ccc2nc(N3CCNCC3)nc(-c3ccccc3)c2c1 is ____.
Result: 7.48

Problem: Fill blank: measured inhibition of the compound CCCc1cc(=O)[nH]c(=S)[nH]1 is ____.
Result: 15.3

---

- study target: Muscarinic acetylcholine receptor M4 (Homo sapiens)
- method description: M4-linked GIRK flux change, two-sided – cell-based, HEK293 M4/GIRK, thallium flux, BTC-AM, M4 allosteric agonist project, primary screen (AID 625);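 further: thallium influx through GIRK channels coupled to M4 in HEK293 cells with BTC-AM dye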
- experimental conditions: at 10 µM, actives lie on both sides
Consider the cut-off 0.005. If the recorded fluorescence slope is strictly smaller, the label is Criterion met; if not, the label is Criterion not met.

# example entries with known answers
{"columns": ["compound", "study target", "assigned category"],
 "data": [
  ["CCOC(=O)c1ccc(CSc2ncn[nH]2)o1", "Muscarinic acetylcholine receptor M4 (Homo sapiens)", "Criterion not met"],
  ["O=C1CN(c2ccccc2F)C(=O)CN1c1ccccc1F", "Muscarinic acetylcholine receptor M4 (Homo sapiens)", "Criterion not met"],
  ["CCNc1oc(COc2ccccc2F)nc1C#N", "Muscarinic acetylcholine receptor M4 (Homo sapiens)", "Criterion not met"],
  ["O=C(NCc1ccc(Cl)cc1)c1ccc(COCC(F)(F)F)o1", "Muscarinic acetylcholine receptor M4 (Homo sapiens)", "Criterion not met"],
  ["COc1ccc(-c2nnc3ccc(SC(C(C)=O)C(C)=O)nn23)cc1OC", "Muscarinic acetylcholine receptor M4 (Homo sapiens)", "Criterion not met"],
  ["CCCN(CCC)C(=O)CSc1nc2ccccc2c(=O)n1C1CCCC1", "Muscarinic acetylcholine receptor M4 (Homo sapiens)", "Criterion met"],
  ["O=C(Nc1ccc(F)cc1)c1cccc2c1C(=O)N(Cc1ccccn1)C2", "Muscarinic acetylcholine receptor M4 (Homo sapiens)", "Criterion not met"],
  ["Cc1ccc(S(=O)(=O)Cc2ccc(C(=O)NCCCN3CCN(C)CC3)o2)cc1", "Muscarinic acetylcholine receptor M4 (Homo sapiens)", "Criterion not met"]
]}

Problem: Record COC(=O)c1cccc(NC(=O)NC2CCCN2S(=O)(=O)c2ccc(Cl)cc2)c1 (stereo unspecified) : is its fluorescence slope strictly below 0.005?
Result: Criterion not met

Problem: Record CCc1nnc(NC(=O)c2ccc(-c3cccc(C(F)(F)F)c3)o2)s1 : is its fluorescence slope strictly below 0.005?
Result: Criterion not met

Problem: Record O=C(Nc1nccs1)c1ccc(Cl)c(S(=O)(=O)N2CCCCC2)c1 : is its fluorescence slope strictly below 0.005?
Result: Criterion not met

Problem: Record COc1ccc(-c2[nH]nc3c2C(c2ccccc2OC(=O)N2CCOCC2)C(C#N)=C(N)O3)cc1 (stereo unspecified) : is its fluorescence slope strictly below 0.005?
Result: Criterion not met

Problem: Record CCOC(=O)c1nnn(CC(=O)Nc2cccc(OC)c2)c1C(=O)OCC : is its fluorescence slope strictly below 0.005?
Result: Criterion not met

Problem: Record Cc1cc(NS(=O)(=O)c2ccc(NC(=O)C(C)N3C(=O)c4ccccc4C3=O)cc2)nc(C)n1 (stereo unspecified) : is its fluorescence slope strictly below 0.005?
Result: Criterion met

Problem: Record CC(C)(C)n1nc2c(c1NC(=O)COc1ccc(Cl)cc1)CSC2 : is its fluorescence slope strictly below 0.005?
Result: Criterion not met

Problem: Record O=c1cc(COn2nnc3ccc(C(F)(F)F)cc32)nc2sccn12 : is its fluorescence slope strictly below 0.005?
Result: Criterion not met

---

- method description: blockers of RIG-like receptor reporter activation – cell-based, Sendai virus stimulus, luciferase, 10K MLSCN set, TLR/RLR signaling modifier project, primary screen (AID 602276);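 further: firefly luciferase from ISG56 promoter only with Renilla not read in this screen; 0% = Sendai virus plus DMSO and 100% = medium plus DMSO without virus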
- experimental conditions: HEK293 RL24 IRF3 luciferase reporter, at 10 µM, stronger effect = higher value
observation type: inhibition (%)
Kindly answer with a numeric value in %, unit omitted.

Problem: Fill blank: measured inhibition of the compound Cc1ccc(S(=O)(=O)N(C)c2ccc(OCC(=O)OCc3c(C)noc3C)cc2)cc1 is ____.
Result: 5.73
